# Test system: BT-549 breast
# assay_info: NCI tumour cell line growth inhibition, 48 h; in the data active = GI50 below about 0.43 µM; inactive = the rest
Outcomes you can answer with include only these: active, inactive

Q) Assay result, entry "C#CCOc1cccc(Nc2ncnc3cc(NC(=O)C=C)ccc23)c1" — outcome?
A) inactive

Q) What would you report for "CC(C)c1[nH]nc2c(NCc3ccc(-c4ccccn4)cc3)nc(SCCN(C)C)nc12" ?
A) active

Q) What would you report for "CCN(CC)S(=O)(=O)c1cccc(-c2ccc3c(NC(=O)C4CC4)n[nH]c3c2)c1" ?
A) inactive

Q) What would you report for "O=c1cc(-c2ccccc2)oc2cc(OCCCCCN3CCOCC3)cc(O)c12" ?
A) inactive

Q) What would you report for C[C@@]1(C(=O)O)CCC[C@]2(C)C1CC[C@]13C[C@@](O)(CO)[C@](O)(CC[C@]12O)C3 (stereo not given in full) ?
A) inactive

Q) What would you report for "CC(C)(O)CCc1cccc(C(=O)c2cnn(-c3ccc(F)cc3)c2N)c1" ?
A) inactive

---

# Test system: SK-MEL-2 melanoma
# assay_info: NCI tumour cell line growth inhibition, 48 h
observed_property: TGI

Reference set, count: 5
{"columns": ["molecule", "TGI"],
 "data": [
  ["CNn1c(-c2ccc(C)cc2)n[nH]c1=O", "> 100 µM"],
  ["CN(C)N=Nc1cccc(C(N)=O)c1", "> 100 µM"],
  ["C=C1C(=O)O[C@H]2[C@H]1CC/C(COC(=O)CCCCCCCC(=O)OC/C1=C/CC[C@@]3(C)O[C@H]3[C@H]3OC(=O)C(=C)[C@@H]3CC1)=C\\CC[C@@]1(C)O[C@@H]21", "31.5 µM"],
  ["CC[C@@H]([C@H](O)c1ccccc1Cl)[N+](=O)[O-]", "> 100 µM"],
  ["CNC(=O)CCCNC(=O)CCCCC(=O)N(C)C", "> 100 µM"]
]}

Q) So what TGI did "CCN(CC)/[N+]([O-])=N/OCOC" get with SK-MEL-2 melanoma?
A) > 100 µM

Q) What would you report for Cc1nc2sc(C(=O)Nc3ccccc3)c(N)c2cc1C(O)c1ccccc1 (stereo not given) ?
A) > 100 µM

Q) What would you report for "O=C(NCCCl)Nc1ccccc1" ?
A) > 100 µM

Q) What would you report for "COc1ccc2c(C)cc(N/N=C/c3ccc(C)s3)nc2c1" ?
A) 37.9 µM

Q) What would you report for COc1ccc(C[C@@H](C(=O)O[C@H](C)[C@H](NC(=O)[C@@H](CC(C)C)N(C)C(=O)C2CCCN2C(=O)[C@H](C)O)C(=O)N2CCCCNC(=O)[C@@H](C)C(=O)[C@H](C(C)C)OC(=O)C[C@H](O)[C@H]2CC(C)C)N(C)C(C)=O)cc1 (stereo not given in full) ?
A) > 50 µM

---

Form field: log10 TGI (one value per entry).
# Test system: HOP-92 NSCLC
# assay_info: NCI tumour cell line growth inhibition, 48 h
Quick note: numbers are log10 of TGI, with µM as the unit.

Reference set, count: 3
{"columns": ["compound", "log10 TGI"],
 "data": [
  ["c1csc(-c2ccc(CNc3c4ccccc4nc4ccccc34)cc2)c1", 0.45],
  ["COc1ccc2c(CCCc3ccc(Cl)cc3Cl)c3[n+](cc2c1OC)CCc1cc2c(cc1-3)OCO2", 0.06],
  ["COC(=O)c1c2c(c(C)[n+]([O-])c1C)C(=O)C(NCc1ccc(F)cc1)=CC2=O", 0.66]
]}

Q) Look up log10 TGI: "Cc1ccc(C(C)C)c(OCC(=O)N/N=C/c2c[nH]c3ccc(Br)cc23)c1"
A) 1.44

Q) What would you report for "CCCCCN(CCCCC)C(=O)[C@H](CCC(=O)O)NC(=O)c1cc2ccccc2[nH]1" ?
A) 2.00

Q) What would you report for CCn1cc(C(=O)N/N=C/c2cccs2)c(=O)c2cc(F)c(N3CCNC(C)C3)c(F)c21 (centres undefined) ?
A) 0.38

Q) What would you report for COc1ccc(/C=C\c2cc(OC)c(OC)c(OC)c2)cc1OC(=O)CC(N)C(=O)O (centres undefined) ?
A) 1.89

Q) What would you report for "Cc1cc(Cl)nc(N(CCCNc2ccnc3cc(Cl)ccc23)Cc2cccs2)n1" ?
A) 0.89

Q) What would you report for "C=C1C(=O)O[C@H]2[C@H]1CC/C(COC(=O)CCCCCCCC(=O)OC/C1=C/CC[C@@]3(C)O[C@H]3[C@H]3OC(=O)C(=C)[C@@H]3CC1)=C\CC[C@@]1(C)O[C@@H]21" ?
A) 0.71

Q) What would you report for Clc1ccc(C(Cc2ccccc2)c2c(Cl)nc(N3CCNCC3)nc2Cl)cc1 (centres undefined) ?
A) 1.41

Q) What would you report for "Cc1cccc(Nc2nc3ccccc3nc2NS(=O)(=O)c2ccccc2)c1" ?
A) 1.80

Q) What would you report for "COC(=O)[C@@H](NC(=O)[C@H](N)Cc1ccc(N(CCCl)CCCl)cc1)C(C)C" ?
A) 0.76

Q) What would you report for CCCCCCCCCC(=O)NC(CCC(=O)N(CCNC(=O)c1nc(-c2ccccc2)oc1-c1ccccc1)Cc1ccccc1)C(=O)O (centres undefined) ?
A) 1.54

Q) What would you report for "Cc1ccc(Nc2nc(=O)c3c([nH]c4ccccc43)s2)cc1" ?
A) 1.41

Q) What would you report for "Nc1ccc(Cn2ccc3c4c(N)nc(N)nc4ccc32)cc1" ?
A) 0.94

Q) What would you report for "CC(=O)c1ccc2c3c1[C@H]1O[C@H]1c1cccc(c1-3)[C@@H]1O[C@H]21" ?
A) 0.57

Q) What would you report for "CCC[CH2][Sn]([CH2]CCC)([O]C(=O)c1cc(F)ccc1F)[O]C(=O)c1cc(F)ccc1F" ?
A) 0.40

Q) What would you report for C[C@]12CC(C=O)C(=O)C(O)=C1CC[C@@H]1C2CC[C@@]2(C)C1CC[C@]2(C)O (some centres undefined) ?
A) 1.52

Q) What would you report for "Cc1nc2c(O)c3c(c(O)c2nc1C)C1C=CC3CC1" ?
A) 0.89

Q) What would you report for "COc1ccc(/C=N/N=C(\N)NO)cc1F" ?
A) 1.88

Q) What would you report for O=[N+]([O-])c1ccc(C2SCc3nc4ccccc4n32)cc1 (centres undefined) ?
A) 1.96

---

Form field: TGI (one value per entry).
# Test system: HT29 colon
# assay_info: NCI tumour cell line growth inhibition, 48 h
Please respond with the number in µM and leave the unit unwritten.

Reference set, count: 2
{"columns": ["record_smiles", "target_or_system", "TGI [µM]"],
 "data": [
  ["CC(C)(C)C(=O)c1c(C(F)(F)F)n([O-])c2cc(Cl)c(Cl)cc2[n+]1=O", "HT29 colon", 0.546],
  ["COCCNCc1ccc(-c2cc3nccc(Oc4ccc(NC(=O)C5(C(=O)Nc6ccc(F)cc6)CC5)cc4F)c3s2)nc1", "HT29 colon", 2.89]
]}

Consider now this further compound.
Q) Look up TGI: "COc1ccc2c(C)cc(N/N=C/c3ccc(C)s3)nc2c1"
A) 16.7

---

# System: K-562 leukemia
# assay_info: NCI tumour cell line growth inhibition, 48 h
observed_property: TGI

{"columns": ["molecule", "target_or_system", "TGI"],
 "data": [
  ["CC1(C)N=C(c2ccccc2)SC12S[C@@H]1CCCC[C@H]1S2", "K-562 leukemia", "> 100 µM"],
  ["c1ccc2c(c1)SCCc1cn[nH]c1-2", "K-562 leukemia", "> 100 µM"],
  ["CCOC(=O)C1=C(O)C(=O)c2ccoc2C1=O", "K-562 leukemia", "> 100 µM"]
]}

Q) Look up TGI: CC(=O)OC1CC(OC2C(O)CC(OC3C(O)CC(OC4CCC5(C)C(CCC6C5CCC5(C)C(C7=CC(=O)OC7)CCC65O)C4)OC3C)OC2C)OC(C)C1OC1OC(CO)C(O)C(O)C1O (centres undefined)
A) > 100 µM

Q) What would you report for "COC(=O)[C@]12C3=C(O)C(=O)C[C@H]1OC[C@H]2C=CC3" ?
A) > 100 µM

Q) What would you report for "CN(C)c1cc2c(Nc3ccc4c(cnn4Cc4ccccc4)c3)ncnc2cn1" ?
A) > 25 µM

Q) What would you report for "O=C(NCc1ccco1)C1CCN(S(=O)(=O)c2ccc(Cl)cc2)CC1" ?
A) > 100 µM

Q) What would you report for "COC(=O)c1sc2c(c1C(=O)OC)C(=NC(C)(C)C)SC2=NC(C)(C)C" ?
A) 43.3 µM

Q) What would you report for "CCN(CC)S(=O)(=O)c1cccc(-c2ccc3c(NC(=O)C4CC4)n[nH]c3c2)c1" ?
A) > 6.25 µM

Q) What would you report for "CC(C)c1[nH]nc2c(NCc3ccc(-c4ccccn4)cc3)nc(SCCN)nc12" ?
A) 10.2 µM

Q) What would you report for NC(=O)C(=O)C1C(=O)N(c2ccccc2)N=C1N (centres undefined) ?
A) > 100 µM

Q) What would you report for "CN(C)C(=S)/N=c1\ssc(=S)n1Cc1ccco1" ?
A) > 55.7 µM

Q) What would you report for Cc1ccc(C)c(NC(=O)C(=O)C2C(=O)N(c3ccccc3)N=C2N)c1 (centres undefined) ?
A) > 100 µM

Q) What would you report for OC(CN1CCCC2CCCCC21)c1cc2ccccc2c2ccccc12 (centres undefined) ?
A) 3.39 µM

Q) What would you report for "S=c1[nH]n2c(COc3ccc(Cl)cc3)nnc2s1" ?
A) > 100 µM

Q) What would you report for "Cc1ccc(C)n2c1nc1cc3ccccc3cc12" ?
A) > 100 µM

Q) What would you report for "CCOC(=O)C(=O)Nc1c(C)cccc1C(C)(C)C" ?
A) > 100 µM

Q) What would you report for "COc1ccc2cc(CN3CCC(C4CCN(Cc5ccc6cc(OC)ccc6c5)CC4)CC3)ccc2c1" ?
A) 2.12 µM

Q) What would you report for "CN1C(=O)[C@H](c2c[nH]c3ccccc23)[C@H](c2c[nH]c3ccccc23)C1=O" ?
A) > 69.5 µM

Q) What would you report for "Cn1cc(C2=C(c3cc[nH]c3)C(=O)NC2=O)c2ccccc21" ?
A) > 25 µM

Q) What would you report for "COc1ccc(NC(=O)c2oc3cc(O)ccc3c(=O)c2C)c([N+](=O)[O-])c1" ?
A) > 100 µM

Q) What would you report for Cc1cc(Cl)ccc1N=C1NC(=O)C(CC(=O)Nc2cccc(C)c2C)S1 (centres undefined) ?
A) > 100 µM

Q) What would you report for CC1=NN(C(=O)CC(=O)NC(=O)/C=C\c2ccccc2)C(=O)C1N=Nc1ccc([N+](=O)[O-])cc1 (centres undefined) ?
A) > 100 µM

This collection of values is drawn from PubChem BioAssay (NCI).
